assay target: DYRK2 (human)
assay notes: radiometric filter-binding kinase assay
protocol conditions: compound 1.0 µM
Entries and their measured residual activity follow.

molecule	readout units	residual activity
CCNc1nc(Nc2cc(F)c(C(=O)N3CCOCC3)cc2OC)ncc1C(F)(F)F	%	50
O=C1Nc2nc(-c3c(O)cccc3OCC3CC3)cc(C3CCCNC3)c2CO1 (configuration not stated)	%	99
NC1(c2ccc(-c3nc4ccn5c(=O)[nH]nc5c4cc3-c3ccccc3)cc2)CCC1	%	96
O=C1NC(=S)N[C@@H]1Cc1c[nH]c2ccccc12	%	82
Cc1cccc(-c2nn(C(=S)Nc3ccccc3)cc2-c2ccnc3ccccc23)n1	%	95
O=C(NCCCNc1nc(Nc2cccc(CN3CCOCC3)c2)ncc1C1CC1)C1CCC1	%	101
CNc1nc(-c2ccc3c(N)n[nH]c3c2)cc(N2C[C@@H](C(=O)NC3CCCCC3)CC[C@H]2C)n1	%	97
FC(F)(F)c1ccc(-c2ccc(Oc3cncc4sc(-c5nn[nH]n5)cc34)cc2)cc1	%	16
COc1cc(C(=O)N2CCOCC2)c(F)cc1Nc1ncc(C(F)(F)F)c(NC2CC2)n1	%	40
CNC(=O)C1[C@H]2O[C@@](C)([C@@H]1N)n1c3ccccc3c3c4c(c5c6ccccc6n2c5c31)C(=O)NC4 (some centres not stated)	%	4
O=C(O)c1ccc(-c2c[nH]c3ncc(-c4ccccc4)cc23)cc1C1CCCC1	%	20
COc1cc2ncn(-c3cc(OCc4ccccc4S(C)(=O)=O)c(C#N)s3)c2cc1OC	%	84
C=CC(=O)N1CCC[C@@H](n2nc(-c3ccc(Oc4ccccc4)cc3)c3c(N)ncnc32)C1	%	105
COc1cc(O)c2c(c1)/C=C/C[C@H](O)[C@H](O)C(=O)/C=C\C[C@H](C)OC2=O	%	89
NC(=O)c1ccc(-c2ccc(Oc3cncc4sc(-c5nn[nH]n5)cc34)cc2)cc1	%	7
COc1ccc(-n2ncc3cnc(Nc4cc(OC)c(OC)c(OCCCN5CCN(C)CC5)c4)nc32)cc1	%	16
CC1=C(CO)C(=O)O[C@@H]([C@@H](C)[C@H]2CC[C@H]3[C@@H]4C[C@H]5O[C@]56[C@@H](O)C=CC(=O)[C@]6(C)C4CC[C@]23C)C1 (some centres not stated)	%	88

###

Entries and their measured residual activity follow.
assay target: UniProt:Q86V86
assay notes: radiometric filter-binding kinase assay
protocol conditions: compound 10.0 µM
metric: residual activity (%)

In [3]: df
Out[3]:
                                   compound             metric  measured_number
0  Cc1ccc(-c2ccc3c(ccc4sc5c(c43)NC[C@@H](C)NC5=O)n2)cn1  residual activity                3
1  O=C1Nc2nc(-c3c(O)cccc3OCC3CC3)cc(C3CCCNC3)c2CO1 (stereo not given)  residual activity                7
2  O=c1c(O)c(-c2ccc(O)c(O)c2)oc2cc(O)c(O)c(O)c12  residual activity                0
3  c1ccc2c(-c3cnn4cc(-c5ccc(N6CCNCC6)cc5)cnc34)ccnc2c1  residual activity               84
4  NC(=O)Nc1ccc2c(c1)/C(=C/c1cc(-c3cccnc3)c[nH]1)C(=O)N2  residual activity                7

###

assay target: NTRK1 (human) (UniProt P04629)
Sequence (P04629 whole entry, looked up): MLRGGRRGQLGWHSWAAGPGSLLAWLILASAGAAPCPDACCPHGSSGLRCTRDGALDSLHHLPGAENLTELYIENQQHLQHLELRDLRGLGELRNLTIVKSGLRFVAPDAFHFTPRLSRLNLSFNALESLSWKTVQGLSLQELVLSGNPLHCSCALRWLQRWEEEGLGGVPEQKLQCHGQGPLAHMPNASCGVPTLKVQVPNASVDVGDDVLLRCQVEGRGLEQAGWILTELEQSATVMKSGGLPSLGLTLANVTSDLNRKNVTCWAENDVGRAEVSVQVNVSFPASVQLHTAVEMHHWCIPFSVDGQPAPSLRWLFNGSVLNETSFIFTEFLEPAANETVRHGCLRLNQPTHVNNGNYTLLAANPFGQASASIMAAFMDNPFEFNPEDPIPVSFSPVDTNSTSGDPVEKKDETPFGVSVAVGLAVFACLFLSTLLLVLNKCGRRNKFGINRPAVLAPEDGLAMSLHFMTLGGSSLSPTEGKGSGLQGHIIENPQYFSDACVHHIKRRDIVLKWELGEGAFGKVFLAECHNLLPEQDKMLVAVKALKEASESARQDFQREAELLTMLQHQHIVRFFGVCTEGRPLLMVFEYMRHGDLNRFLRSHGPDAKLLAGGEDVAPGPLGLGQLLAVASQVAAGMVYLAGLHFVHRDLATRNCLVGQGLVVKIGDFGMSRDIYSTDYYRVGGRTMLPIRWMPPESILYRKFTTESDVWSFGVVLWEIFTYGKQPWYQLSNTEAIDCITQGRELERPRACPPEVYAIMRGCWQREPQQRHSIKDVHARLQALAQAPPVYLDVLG
assay notes: radiometric filter-binding kinase assay
protocol conditions: compound 1.0 µM
Each entry gets -1 if its residual activity stays under 90%, and 1 if its residual activity is 90% or above.

molecule	assay target	label class
Cc1ccc(-c2ccc3c(ccc4sc5c(c43)NC[C@@H](C)NC5=O)n2)cn1	NTRK1 (human) (UniProt P04629)	1
N#Cc1c(C2CCNCC2)cc(-c2c(O)cccc2OCC2CC2)nc1N	NTRK1 (human) (UniProt P04629)	-1
CNc1nc(-c2ccc3c(N)n[nH]c3c2)cc(N2C[C@@H](C(=O)NC3CCCCC3)CC[C@H]2C)n1	NTRK1 (human) (UniProt P04629)	1
Cc1cccc(-c2nn(C(=S)Nc3ccccc3)cc2-c2ccnc3ccccc23)n1	NTRK1 (human) (UniProt P04629)	1
CN(C)C/C=C/C(=O)Nc1cccc(C(=O)Nc2ccc(Nc3nccc(-c4cccnc4)n3)cc2)c1	NTRK1 (human) (UniProt P04629)	-1
NC(=O)c1ccc(-c2ccc(Oc3cncc4sc(-c5nn[nH]n5)cc34)cc2)cc1	NTRK1 (human) (UniProt P04629)	-1
CC1=C(CO)C(=O)O[C@@H]([C@@H](C)[C@H]2CC[C@H]3[C@@H]4C[C@H]5O[C@]56[C@@H](O)C=CC(=O)[C@]6(C)C4CC[C@]23C)C1 (some centres undefined)	NTRK1 (human) (UniProt P04629)	1

###

assay target: EPHA4 (human)
assay notes: radiometric filter-binding kinase assay
protocol conditions: compound 10.0 µM
Field: label. Allowed values: Criterion met (residual activity < 90%) or Criterion not met (residual activity >= 90%).

molecule	label class
NC(=O)c1cc(-c2ccnc(NC3CCCCC3)c2)nc(N2CCNCC2)c1	Criterion met
O=C(N[C@@H](COc1ccc2[nH]c(=O)[nH]c2c1)c1ccccc1)c1cccn(Cc2ccc(F)c(F)c2)c1=O	Criterion not met
CC1=C(CO)C(=O)O[C@@H]([C@@H](C)[C@H]2CC[C@H]3[C@@H]4C[C@H]5O[C@]56[C@@H](O)C=CC(=O)[C@]6(C)C4CC[C@]23C)C1 (some centres undefined)	Criterion not met
N#Cc1c(C2CCNCC2)cc(-c2c(O)cccc2OCC2CC2)nc1N	Criterion met
N#Cc1c(O)c2c(-c3ccc(-c4ccccc4O)cc3)csc2[nH]c1=O	Criterion not met
CCCCCc1ccc(/C=C/[C@H](O)[C@@H](CO)NC)cc1	Criterion not met
Cc1ccc(-c2ccc3c(ccc4sc5c(c43)NC[C@@H](C)NC5=O)n2)cn1	Criterion met
NC1(c2ccc(-c3nc4ccn5c(=O)[nH]nc5c4cc3-c3ccccc3)cc2)CCC1	Criterion not met
FC(F)(F)c1ccc(-c2ccc(Oc3cncc4sc(-c5nn[nH]n5)cc34)cc2)cc1	Criterion not met
Nc1cccc2c1CN(C1CCC(=O)NC1=O)C2=O (centres undefined)	Criterion not met
CNc1nc(-c2ccc3c(N)n[nH]c3c2)cc(N2C[C@@H](C(=O)NC3CCCCC3)CC[C@H]2C)n1	Criterion not met
NS(=O)(=O)OC[C@@H]1C[C@@H](n2ccc3c(N[C@H]4CCc5ccccc54)ncnc32)C[C@@H]1O	Criterion not met
Cc1ccc(=O)n(-c2ccccc2)c1	Criterion not met
O=C(Nc1ccccc1-c1cn2c(CN3CCNCC3)csc2n1)c1cnc2ccccc2n1	Criterion met
Cc1ccc(Sc2cnc(Nc3cccc(Br)n3)s2)cc1C(=O)N1CCN(C(=O)CN)CC1	Criterion met
COc1cc(C(=O)N2CCOCC2)c(F)cc1Nc1ncc(C(F)(F)F)c(NC2CC2)n1	Criterion not met
CCNc1nc(Nc2cc(F)c(C(=O)N3CCOCC3)cc2OC)ncc1C(F)(F)F	Criterion met

###

assay target: MAP3K11 (human)
assay notes: radiometric filter-binding kinase assay
protocol conditions: compound 1.0 µM

compound	residual activity
O=C(NCCCNc1nc(Nc2cccc(CN3CCOCC3)c2)ncc1C1CC1)C1CCC1	8%
NC(=O)c1ccc(-c2ccc(Oc3cncc4sc(-c5nn[nH]n5)cc34)cc2)cc1	81%
NC(=O)c1cc2c(-c3cccc(-c4ccccc4)c3)cnc(N)c2s1	19%
NC1(c2ccc(-c3nc4ccn5c(=O)[nH]nc5c4cc3-c3ccccc3)cc2)CCC1	97%
Cc1nc(-c2ccc(OCC(C)C)c(C#N)c2)sc1C(=O)O	80%
C=C1C(=O)OC2C1CC/C(C)=C/CCC1(C)OC21 (stereo not drawn)	104%
Nc1cccc2c1CN(C1CCC(=O)NC1=O)C2=O (stereo not drawn)	92%
Cc1ccc(-c2ccc3c(ccc4sc5c(c43)NC[C@@H](C)NC5=O)n2)cn1	102%
O=C(Nc1nc2cc(C(F)(F)F)cc(NC3CC3)n2n1)c1cccnc1	87%
COc1cc(C(=O)N2CCOCC2)c(F)cc1Nc1ncc(C(F)(F)F)c(NC2CC2)n1	35%
CCn1c(-c2nonc2N)nc2cncc(CNC3CCNCC3)c21	111%
CN(C)C/C=C/C(=O)Nc1cccc(C(=O)Nc2ccc(Nc3nccc(-c4cccnc4)n3)cc2)c1	59%
O=C(N[C@@H](COc1ccc2[nH]c(=O)[nH]c2c1)c1ccccc1)c1cccn(Cc2ccc(F)c(F)c2)c1=O	97%
NS(=O)(=O)OC[C@@H]1C[C@@H](n2ccc3c(N[C@H]4CCc5ccccc54)ncnc32)C[C@@H]1O	92%
CC1=C(CO)C(=O)O[C@@H]([C@@H](C)[C@H]2CC[C@H]3[C@@H]4C[C@H]5O[C@]56[C@@H](O)C=CC(=O)[C@]6(C)C4CC[C@]23C)C1 (stereo partly drawn)	110%
COc1cc(O)c2c(c1)/C=C/C[C@H](O)[C@H](O)C(=O)/C=C\C[C@H](C)OC2=O	79%
FC(F)(F)c1ccc(-c2ccc(Oc3cncc4sc(-c5nn[nH]n5)cc34)cc2)cc1	91%
c1ccc2c(-c3cnn4cc(-c5ccc(N6CCNCC6)cc5)cnc34)ccnc2c1	33%
N#Cc1c(C2CCNCC2)cc(-c2c(O)cccc2OCC2CC2)nc1N	87%
Cc1cc(NC(=O)c2cccc(NC(=O)/C=C/CN(C)C)c2)ccc1Nc1nccc(-c2cccnc2)n1	94%
O=C(NOCC(O)CO)c1ccc(F)c(F)c1Nc1ccc(I)cc1Cl (stereo not drawn)	83%
CN1C(=O)[C@@H](Cc2c[nH]c3ccccc23)NC1=S	109%
NCC(=O)Nc1ccc(-n2nc(C(F)(F)F)cc2-c2ccc3c(ccc4ccccc43)c2)cc1	94%
